assay: AUC in CD-1 mouse at 50 mg/kg, po; assay type: ADME, organism-based; parameters: dose 50 mg/kg, route oral; details: plasma
Assay metric: AUC (ng·h/mL)
Write the answer as a number in ng·h/mL, unit excluded.

Would you kindly share the measured AUC for F[C@@H]1CNCC[C@H]1n1cc(-c2ccc3c(c2)Cc2c[nH]nc2-3)c(-c2ccncc2)n1 (stereo in doubt; 38) ?
13400

###

biological target: Serine/threonine-protein kinase B-raf (Homo sapiens); assay: Inhibition of B-Raf
Sequence (P15056 whole entry): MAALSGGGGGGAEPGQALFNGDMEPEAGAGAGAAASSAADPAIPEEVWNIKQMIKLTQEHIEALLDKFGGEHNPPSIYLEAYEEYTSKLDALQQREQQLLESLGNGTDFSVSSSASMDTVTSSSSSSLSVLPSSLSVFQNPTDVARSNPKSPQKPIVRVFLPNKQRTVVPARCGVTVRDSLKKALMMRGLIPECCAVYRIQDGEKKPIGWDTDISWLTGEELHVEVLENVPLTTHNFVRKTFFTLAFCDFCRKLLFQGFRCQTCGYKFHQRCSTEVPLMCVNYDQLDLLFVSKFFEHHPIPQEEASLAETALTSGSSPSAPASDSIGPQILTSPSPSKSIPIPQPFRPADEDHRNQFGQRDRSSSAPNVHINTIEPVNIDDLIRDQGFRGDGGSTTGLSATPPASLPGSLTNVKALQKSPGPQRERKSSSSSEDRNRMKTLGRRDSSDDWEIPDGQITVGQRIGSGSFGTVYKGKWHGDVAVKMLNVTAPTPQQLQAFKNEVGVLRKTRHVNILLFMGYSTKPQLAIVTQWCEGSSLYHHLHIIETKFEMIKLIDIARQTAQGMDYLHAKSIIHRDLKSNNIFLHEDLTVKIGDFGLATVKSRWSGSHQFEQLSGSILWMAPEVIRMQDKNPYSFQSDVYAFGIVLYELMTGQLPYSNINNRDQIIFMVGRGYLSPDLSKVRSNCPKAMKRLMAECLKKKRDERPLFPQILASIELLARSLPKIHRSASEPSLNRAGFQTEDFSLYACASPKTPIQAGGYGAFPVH
Assay metric: pIC50
Note: pIC50 values are expressed as the negative base-10 logarithm of concentration in M.

Cn1cc(-c2ccc(-c3cc[nH]c3)cc2)c(-c2ccncc2)n1: 6.10
Cn1cc(-c2ccc3[nH]ccc3c2)c(-c2ccncc2)n1: 6.06
Cn1cc(-c2ccc3cc(O)ccc3c2)c(-c2ccncc2)n1: 7.11

So what pIC50 did Cn1cc(-c2ccc(-c3c[nH]nn3)cc2)c(-c2ccncc2)n1 get with Serine/threonine-protein kinase B-raf (Homo sapiens)?
7.26

Please tell me: pIC50 of O[C@@H]1CNCC[C@H]1n1cc(-c2ccc3c(c2)Cc2c[nH]nc2-3)c(-c2ccncc2)n1 , system Serine/threonine-protein kinase B-raf (Homo sapiens)?
8.31
